The following compounds were reported with IC50 values on Non-receptor tyrosine-protein kinase TYK2 (Homo sapiens) in different studies.
Sequence (P29597 whole entry): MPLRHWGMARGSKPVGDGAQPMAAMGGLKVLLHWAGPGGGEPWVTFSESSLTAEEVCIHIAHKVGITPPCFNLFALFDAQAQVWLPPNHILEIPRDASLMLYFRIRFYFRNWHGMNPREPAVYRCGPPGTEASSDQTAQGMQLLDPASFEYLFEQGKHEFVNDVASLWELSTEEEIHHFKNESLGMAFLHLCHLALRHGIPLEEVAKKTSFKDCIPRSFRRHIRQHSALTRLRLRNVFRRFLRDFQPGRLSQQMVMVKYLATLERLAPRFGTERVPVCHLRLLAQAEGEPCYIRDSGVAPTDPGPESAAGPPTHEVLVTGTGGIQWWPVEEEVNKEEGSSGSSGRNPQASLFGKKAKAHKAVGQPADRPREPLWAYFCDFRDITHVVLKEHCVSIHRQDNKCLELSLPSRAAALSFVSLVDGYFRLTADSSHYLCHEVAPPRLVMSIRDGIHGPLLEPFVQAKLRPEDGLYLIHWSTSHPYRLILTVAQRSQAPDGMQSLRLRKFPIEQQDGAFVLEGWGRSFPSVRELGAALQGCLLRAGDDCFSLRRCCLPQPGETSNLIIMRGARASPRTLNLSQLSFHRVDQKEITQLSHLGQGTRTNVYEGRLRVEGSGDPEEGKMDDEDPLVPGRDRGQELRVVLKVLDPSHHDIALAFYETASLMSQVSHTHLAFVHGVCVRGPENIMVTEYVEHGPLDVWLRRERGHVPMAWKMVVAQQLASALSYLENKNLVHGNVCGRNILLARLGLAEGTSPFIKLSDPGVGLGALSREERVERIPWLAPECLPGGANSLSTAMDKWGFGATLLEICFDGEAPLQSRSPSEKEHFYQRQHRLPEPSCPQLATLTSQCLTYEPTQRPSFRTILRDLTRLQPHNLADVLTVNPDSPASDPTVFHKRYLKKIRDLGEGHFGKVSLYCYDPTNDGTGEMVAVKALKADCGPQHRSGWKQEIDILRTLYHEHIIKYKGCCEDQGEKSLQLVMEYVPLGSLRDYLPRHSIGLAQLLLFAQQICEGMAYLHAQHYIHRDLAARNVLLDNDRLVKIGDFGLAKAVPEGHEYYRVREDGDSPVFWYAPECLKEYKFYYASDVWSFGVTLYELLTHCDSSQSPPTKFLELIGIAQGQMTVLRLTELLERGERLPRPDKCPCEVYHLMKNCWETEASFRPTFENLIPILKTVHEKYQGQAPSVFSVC
Numbers only, in nM.

>  <compound>
CCS(=O)(=O)NCc1ccc(Nc2ncc(C)c(-c3cnn(C(C)C)c3)n2)cc1

>  <measured>
192

$$$$
>  <compound>
C1=C/COCc2cc(ccc2OCCN2CCCC2)Nc2nccc(n2)-c2ccnc(c2)OCC/1 (mixture of isomers)

>  <measured>
30

$$$$
>  <compound>
C[C@]1(C#N)CCC[C@H]1Nc1c(C(N)=O)cnn2cccc12 (racemic)

>  <measured>
6

$$$$
>  <compound>
C[C@@H](O)[C@@H](CO)Nc1c(C(N)=O)cnn2cc(-c3ccccc3)cc12

>  <measured>
34

$$$$
>  <compound>
Cn1ccc(-c2cn3nccc3c(-c3cnn([C@]4(CC#N)C[C@H](C#N)C4)c3)n2)n1

>  <measured>
10

$$$$

I need IC50 for every entry listed below, if you could help.
1. C=CS(=O)(=O)NCc1ccc(Nc2ncc(C)c(-c3cnn(C(C)C)c3)n2)cc1
2. N#C[C@H]1CCOC[C@@H]1n1cc(C(N)=O)c(Nc2ccc([C@H](O)C(F)(F)F)cc2)n1
3. COc1cc(Nc2nn([C@H]3COCC[C@@H]3C#N)cc2C(N)=O)ccc1C#N

1. 206
2. 0.4
3. 9

For each entry beneath this line, provide reported IC50.
1. CC(C)(O)C(=O)N1CCN(c2ccc(C(F)(F)F)c(C3=C(c4c[nH]c5ccccc45)C(=O)NC3=O)c2)CC1
2. CC1(C)CCC[C@H]1Nc1c(C(N)=O)cnn2cccc12
3. CN1CCN(C(=O)C(C#N)=Cc2ccc(-c3nc4cnc5[nH]ccc5c4n3C3CCCCC3)o2)CC1
4. Cc1cnc(Nc2ccccc2)nc1-c1cnn(CCC#N)c1

1: 1690; 2: 8; 3: 791; 4: 11
